Tested on: HEK-293T
Assay: Multiplex assay against HEK293T
Format: toxicity, cell-based
Conditions: human, 24 h, 10 µM, compound concentration 10 uM, replicate 2
Labelling field: enter Met if recorded Population Hoechst High Intensity Objects (%) is less than 6%. Enter Not met if it equals or exceeds that cut-off.

[
  {
    "molecule": "CC(Cc1ccc(O)c(O)c1)C(C)Cc1ccc(O)c(O)c1 (centres undefined) [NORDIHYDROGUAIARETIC ACID]",
    "target under test": "HEK-293T",
    "answer label": "Met"
  },
  {
    "molecule": "CN(c1cc(C(F)(F)F)nc(OCCC(=O)O)n1)c1cccc2c1CCC2",
    "target under test": "HEK-293T",
    "answer label": "Met"
  },
  {
    "molecule": "CC(C)[C@H](CO)Nc1nc(Nc2cccc(Cl)c2)c2ncn(C(C)C)c2n1 [PURVALANOLA]",
    "target under test": "HEK-293T",
    "answer label": "Not met"
  },
  {
    "molecule": "CC[C@H](Nc1ncnc2[nH]cnc12)c1nc2cccc(F)c2c(=O)n1-c1ccccc1 [IDELALISIB]",
    "target under test": "HEK-293T",
    "answer label": "Met"
  },
  {
    "molecule": "c1ccc(-c2oc3ncnc(NC[C@@H]4CCCO4)c3c2-c2ccccc2)cc1",
    "target under test": "HEK-293T",
    "answer label": "Met"
  },
  {
    "molecule": "Cl.NC[C@@H]1O[C@H](C23CC4CC(CC(C4)C2)C3)Cc2c1ccc(O)c2O",
    "target under test": "HEK-293T",
    "answer label": "Not met"
  },
  {
    "molecule": "CN1C(=O)[C@@H](NC(=O)c2cc3ccccc3[nH]2)N=C(c2ccccc2)c2ccccc21 [DEVAZEPIDE]",
    "target under test": "HEK-293T",
    "answer label": "Met"
  },
  {
    "molecule": "CCCc1cc(C)[nH]c(=O)c1CNC(=O)c1cc(-c2ccc(N3CCN(C(C)C)CC3)nc2)cc2c1cnn2C(C)C",
    "target under test": "HEK-293T",
    "answer label": "Not met"
  }
]

* * *

Test system: U2OS
Experiment: Multiplex assay against U2OS
Type: toxicity, cell-based
Details: human, 24 h, 10 µM, compound concentration 10 uM, replicate 2
// reported Population Mitochondria Different-Phenotype (%) per item
parameter measured: Population Mitochondria Different-Phenotype (%)

[
  {
    "compound": "C=CC(=O)Nc1cc(-n2c(=O)ccc3cnc4ccc(-c5ccc(NS(C)(=O)=O)cc5)cc4c32)ccc1C",
    "scale unit": "%",
    "result number": 50
  },
  {
    "compound": "CC[C@@]1(O)C(=O)OCc2c1cc1n(c2=O)Cc2cc3ccccc3nc2-1",
    "scale unit": "%",
    "result number": 35
  },
  {
    "compound": "CCCc1cc(C)[nH]c(=O)c1CNC(=O)c1cc(-c2ccc(N3CCN(C(C)C)CC3)nc2)cc2c1cnn2C(C)C",
    "scale unit": "%",
    "result number": 100
  },
  {
    "compound": "CCOc1ccn(-c2ccc(F)cc2)c(=O)c1C(=O)Nc1ccc(Oc2ccnc(N)c2Cl)c(F)c1",
    "scale unit": "%",
    "result number": 34
  },
  {
    "compound": "CN(c1cc(C(F)(F)F)nc(OCCC(=O)O)n1)c1cccc2c1CCC2",
    "scale unit": "%",
    "result number": 13
  },
  {
    "compound": "Cc1c(P(=S)(c2ccccc2)c2ccccc2)n2ccccc2[n+]1C/C=C/c1ccccc1.[Br-]",
    "scale unit": "%",
    "result number": 81
  },
  {
    "compound": "CC(Cc1ccc(O)c(O)c1)C(C)Cc1ccc(O)c(O)c1 (stereo unspecified) [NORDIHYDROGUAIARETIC ACID]",
    "scale unit": "%",
    "result number": 9
  },
  {
    "compound": "Oc1cccc(-c2nc(N3CCOCC3)c3oc4ncccc4c3n2)c1",
    "scale unit": "%",
    "result number": 75
  },
  {
    "compound": "CC(C)c1cc(Nc2nc(N3CCC[C@H](N)C3)ncc2C(N)=O)cc(C(C)C)n1",
    "scale unit": "%",
    "result number": 90
  },
  {
    "compound": "Cl.Cn1c2c(c3ccc(Cl)c(Cl)c31)C(C#N)C1(CCNCC1)NC2=O (stereo unspecified)",
    "scale unit": "%",
    "result number": 91
  },
  {
    "compound": "CN1C(=O)[C@@H](NC(=O)c2cc3ccccc3[nH]2)N=C(c2ccccc2)c2ccccc21 [DEVAZEPIDE]",
    "scale unit": "%",
    "result number": 45
  },
  {
    "compound": "CC[C@@H]1C(=O)N(C)c2cnc(Nc3ccc(C(=O)NC4CCN(C)CC4)cc3OC)nc2N1C1CCCC1",
    "scale unit": "%",
    "result number": 100
  },
  {
    "compound": "CN1CCN(Cc2ccc(-c3cnc4[nH]cc(-c5ccc6[nH]ccc6c5)c4c3)cc2)CC1",
    "scale unit": "%",
    "result number": 39
  },
  {
    "compound": "Cc1c(Nc2ccc(S(=O)(=O)N3CCN(C)CC3)cc2F)nc2ccc(Nc3cnn(C4CC4)c3)cn2c1=O",
    "scale unit": "%",
    "result number": 26
  },
  {
    "compound": "Cl.NC[C@@H]1O[C@H](C23CC4CC(CC(C4)C2)C3)Cc2c1ccc(O)c2O",
    "scale unit": "%",
    "result number": 26
  },
  {
    "compound": "c1ccc(-c2oc3ncnc(NC[C@@H]4CCCO4)c3c2-c2ccccc2)cc1",
    "scale unit": "%",
    "result number": 56
  }
]

* * *

Tested on: U2OS
Assay: Multiplex assay against U2OS
Format: toxicity, cell-based
Settings: human, 48 h, 1 µM, compound concentration 1 uM, replicate 1

[
  {
    "compound": "C[C@@H](Oc1cc(-n2cnc3ccc(CN4CCN(C)CC4)cc32)sc1C(N)=O)c1ccccc1C(F)(F)F [GSK-461364]",
    "Population Healthy Nuclei (%)": 51
  },
  {
    "compound": "Cc1ccc(S(=O)(=O)NC2c3ccccc3Oc3ccccc32)cc1",
    "Population Healthy Nuclei (%)": 85
  },
  {
    "compound": "CN(c1cc(C(F)(F)F)nc(OCCC(=O)O)n1)c1cccc2c1CCC2",
    "Population Healthy Nuclei (%)": 86
  },
  {
    "compound": "C=CC(=O)Nc1cc(-n2c(=O)ccc3cnc4ccc(-c5ccc(NS(C)(=O)=O)cc5)cc4c32)ccc1C",
    "Population Healthy Nuclei (%)": 87
  },
  {
    "compound": "CCCCN(CC)c1nc(C)nc2c1c(C)cn2-c1c(C)cc(C)cc1C.Cl",
    "Population Healthy Nuclei (%)": 86
  }
]

* * *

// reported Growth Rate per item
System: U2OS
Test: Incucyte cell viability with U2OS; also: filed as whole numbers so only -1 and 0 and 1 occur
Assay type: toxicity, cell-based
Conditions: human, 24 h, 10 µM, compound concentration 10 uM, replicate number 1, timepoint 24 hours

[
  {
    "compound": "O=C(O)[C@H]1[C@H](Cn2nnc3ccccc3c2=O)CC[C@@H]1C(=O)c1ccc(OCCC2CCOCC2)cc1 [BAY-7598]",
    "Growth Rate": 1
  },
  {
    "compound": "CC(C)c1cc(Nc2nc(N3CCC[C@H](N)C3)ncc2C(N)=O)cc(C(C)C)n1",
    "Growth Rate": 0
  },
  {
    "compound": "Cl.Cn1c2c(c3ccc(Cl)c(Cl)c31)C(C#N)C1(CCNCC1)NC2=O (stereo not drawn)",
    "Growth Rate": 0
  },
  {
    "compound": "C/C(=C/C=C/C(C)=C/C(=O)O)c1cc(C(C)(C)C)cc(C(C)(C)C)c1OCC(F)F",
    "Growth Rate": 1
  },
  {
    "compound": "COc1ccc2c(c1)O[C@@H](c1ccc(OC)c(OC)c1)C[C@H]2NC(=O)C1(c2ccc3c(c2)OC(F)(F)O3)CC1 [A-1596586]",
    "Growth Rate": 1
  },
  {
    "compound": "CN1CCN(Cc2ccc(-c3cnc4[nH]cc(-c5ccc6[nH]ccc6c5)c4c3)cc2)CC1",
    "Growth Rate": 0
  },
  {
    "compound": "CS(=O)(=O)N1CCCC(NC(=O)[C@H](CCC2CCCCC2)NC(=O)c2ccc(CNC(=O)c3cnc4ccccn34)cc2)C1 (stereo partly drawn) [SR-302]",
    "Growth Rate": 0
  },
  {
    "compound": "Cc1c(F)cccc1NC(=O)Nc1ccc(Cl)c(S(=O)(=O)[C@H]2CCCNC2)c1O [DANIRIXIN]",
    "Growth Rate": 0
  }
]
